- measurementDescription: In vivo mouse pharmacokinetics
- reportedConditions: male, CD-1, mouse, plasma, iv, 1 mg/kg
reportedProperty: Vd (L/kg)

A = CN[C@H]1CCCN(c2ccc(Nc3cc(NC4CC4)n4ncc(C#N)c4n3)cc2NC(C)=O)C1
B = CN[C@H]1CCN(c2ccc(Nc3cc(NC4CC4)n4ncc(C#N)c4n3)cc2NC(C)=O)C1
Dear colleague, could you let me know whether A or B has the lower recorded Vd? Thanks. Pick one; state its label. B
(B: 2.67 L/kg, A: 5.07 L/kg)

* * *

- measurementDescription: In vivo mouse pharmacokinetics
- reportedConditions: male, CD-1, mouse, plasma, iv, 1 mg/kg
reportedProperty: Cmax (ng/mL)

molecule: CN[C@H]1CCN(c2ccc(Nc3cc(NC4CC4)n4ncc(C#N)c4n3)cc2NC(C)=O)C1 [Compound 2e]
displayUnit: ng/mL
Cmax: 810

I = CN[C@H]1CCCN(c2ccc(Nc3cc(NC4CC4)n4ncc(C#N)c4n3)cc2NC(C)=O)C1 [Compound 2c]
II = CCC(=O)Nc1cc(Nc2cc(NC3CC3)n3ncc(C#N)c3n2)ccc1N1CCC[C@H](NC)C1 [Compound 1i]
Dear colleague, could you let me know whether I or II has the lower recorded Cmax? Thanks. Pick one; state its label. I
(I: 350 ng/mL, II: 1100 ng/mL)

* * *

- measurementDescription: In vivo mouse pharmacokinetics
- reportedConditions: male, CD-1, mouse, plasma, iv, 1 mg/kg
reportedProperty: AUC(0-t) (ng·h/mL)

compound: CN[C@H]1CCCN(c2ccc(Nc3cc(NC4CC4)n4ncc(C#N)c4n3)cc2NC(C)=O)C1 [Compound 2c]
quantitativeReadout: 200
--
compound: CN[C@H]1CCN(c2ccc(Nc3cc(NC4CC4)n4ncc(C#N)c4n3)cc2NC(C)=O)C1 [Compound 2e]
quantitativeReadout: 250

* * *

- measurementDescription: In vivo mouse pharmacokinetics
- reportedConditions: male, CD-1, mouse, plasma, ip, 10 mg/kg
reportedProperty: bioavailability (%)

compound: CN[C@H]1CCCN(c2ccc(Nc3cc(NC4CC4)n4ncc(C#N)c4n3)cc2NC(C)=O)C1 [Compound 2c]
displayUnit: %
bioavailability: 40

P = CN[C@H]1CCN(c2ccc(Nc3cc(NC4CC4)n4ncc(C#N)c4n3)cc2NC(C)=O)C1 [Compound 2e]
Q = CCC(=O)Nc1cc(Nc2cc(NC3CC3)n3ncc(C#N)c3n2)ccc1N1CCC[C@H](NC)C1 [Compound 1i]
Field: entry with larger bioavailability (options P / Q ). Pick one; state its label. Q
(Q: 100%, P: 53%)
